Biological target: EGFR TMLRCS (BaF3-TMLRCS cell line) (Homo sapiens, UniProt P00533, C797S/L858R/T790M)
Sequence (P00533 25-1210 T790M/C797S/L858R): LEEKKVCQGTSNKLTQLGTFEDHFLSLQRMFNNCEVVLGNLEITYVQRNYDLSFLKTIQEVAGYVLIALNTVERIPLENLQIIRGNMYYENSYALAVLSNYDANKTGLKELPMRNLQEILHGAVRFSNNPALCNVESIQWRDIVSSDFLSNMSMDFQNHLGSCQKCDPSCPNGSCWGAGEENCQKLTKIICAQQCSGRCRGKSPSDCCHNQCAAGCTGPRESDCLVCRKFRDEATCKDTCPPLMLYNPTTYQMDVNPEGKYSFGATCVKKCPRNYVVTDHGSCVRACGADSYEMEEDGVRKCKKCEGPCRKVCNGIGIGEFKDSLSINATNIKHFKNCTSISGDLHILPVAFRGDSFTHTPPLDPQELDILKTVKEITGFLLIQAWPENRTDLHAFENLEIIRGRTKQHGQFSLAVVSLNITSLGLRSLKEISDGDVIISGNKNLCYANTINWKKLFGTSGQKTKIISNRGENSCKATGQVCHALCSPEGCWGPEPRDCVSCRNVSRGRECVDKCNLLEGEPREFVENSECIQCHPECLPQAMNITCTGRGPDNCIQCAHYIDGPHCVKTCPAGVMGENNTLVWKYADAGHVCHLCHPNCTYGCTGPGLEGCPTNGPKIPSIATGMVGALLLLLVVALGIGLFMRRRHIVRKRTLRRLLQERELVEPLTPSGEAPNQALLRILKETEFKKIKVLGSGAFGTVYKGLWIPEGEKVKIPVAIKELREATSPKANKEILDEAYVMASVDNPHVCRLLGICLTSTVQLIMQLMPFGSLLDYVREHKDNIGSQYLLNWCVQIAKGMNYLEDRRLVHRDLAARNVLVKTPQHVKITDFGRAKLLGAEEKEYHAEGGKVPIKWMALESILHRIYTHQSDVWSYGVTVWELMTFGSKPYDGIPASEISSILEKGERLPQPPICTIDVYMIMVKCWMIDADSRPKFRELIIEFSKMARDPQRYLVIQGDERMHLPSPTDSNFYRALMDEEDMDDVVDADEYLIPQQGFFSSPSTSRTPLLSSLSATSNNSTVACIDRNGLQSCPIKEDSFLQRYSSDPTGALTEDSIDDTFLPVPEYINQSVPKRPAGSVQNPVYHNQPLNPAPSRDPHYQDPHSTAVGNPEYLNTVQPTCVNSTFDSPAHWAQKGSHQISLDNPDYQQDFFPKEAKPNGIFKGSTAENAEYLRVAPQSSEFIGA
Assay: HTRF Phospho EGFR TMLRCS assay (cellular)
Details: BaF3-TMLRCS cells, 4 hours incubation
Documented IC50 across a set of molecules
Answer as a quantity: numeral, then unit.

Completed entries (count: 3):
O=C(Nc1nccs1)C(c1ncn2c1CCC2)N1Cc2c(cc(C#Cc3ccc(CN4CCC(CO)CC4)cc3)cc2C(F)(F)F)C1=O (racemic) = 1 nM
CCN1CCC(c2ccc(-c3cc4c(c(C(F)F)c3)CN(C(C(=O)Nc3nccs3)c3ncn5c3C[C@@H](F)C5)C4=O)cc2)CC1 (mixture of isomers) = 16 nM
O=C(Nc1nccs1)C(c1ncn2c1C[C@@H](F)C2)N1Cc2c(cc(C#Cc3ccc(CN4CCCC(O)CC4)cc3)cc2C(F)(F)F)C1=O (mixture of isomers) = 2 nM

Continue with the next molecule.
Q: Quick one: IC50 for O=C(Nc1nccs1)C(c1ncn2c1C[C@@H](F)C2)N1Cc2c(cc(C#Cc3ccc(CN4CCC(CO)CC4)cc3)cc2C(F)(F)F)C1=O (mixture of isomers) ?
A: 1 nM
